assay: Vero E6 cell cytotoxicity, SAR follow-up, cytotoxicity control for West Nile virus antiviral project, synthesized analogs, extended characterization 1 (AID 588374); conditions: Vero E6 viability, CellTiter-Glo luminescence, 72 h; at 50 µM (top of the series)
Records with an inconclusive call do not appear.
Exercise: state measured viability for each of the compounds provided.
Give bare numbers, in %.

Here are 6 compounds together with their reported answers.
* O=C(CSc1nc2ccccc2c(=O)n1-c1ccc(Cl)c(Cl)c1)NC1CCc2ccccc21 (configuration not stated) | 73.8
* O=C(CSc1nc2ccccc2c(=O)n1-c1ccc(F)c(F)c1)Nc1nccs1 | 74.1
* O=C(CSc1nc2cccc(F)c2c(=O)n1-c1ccccc1)Nc1ccc2ncsc2c1 | 86.2
* O=C(CSc1nc2ccccc2c(=O)n1-c1ccccc1)Nc1nc(-c2ccccc2)cs1 | 77.7
* O=C(CSc1nc2ccccc2c(=O)n1-c1ccc(Cl)c(Cl)c1)Nc1cccc2c1CCC2 | 76.2
* Cn1c(NC(=O)CSc2nc3ccccc3c(=O)n2-c2ccc(Cl)c(Cl)c2)nc2ccccc21 | 74.2

Ask: Give its viability value. Item: O=C(CSc1nc2ccccc2c(=O)n1-c1cc(F)c(F)c(F)c1)Nc1ccc2c(c1)CCC2
Reply: 76.3

---

assay: Vero E6 cell cytotoxicity, SAR follow-up, cytotoxicity control for West Nile virus antiviral project, synthesized analogs, extended characterization 1 (AID 588374); settings: Vero E6 viability, CellTiter-Glo luminescence, 72 h; at 100 µM (top of the series)
Records with an inconclusive call do not appear.
Lab note: cut-off is 80%. Strictly less in viability is satisfied. Exactly 80% or more is not satisfied.

Study these solved cases before continuing.
• O=C(COc1nc2ccccc2c(=O)n1-c1ccccc1)Nc1ccc2c(c1)CCC2 = satisfied
• O=C(CCCSc1nc2cccc(F)c2c(=O)n1-c1ccc(Cl)c(F)c1)Nc1ccc2c(c1)CCC2 = not satisfied
• O=C(CCCCSc1nc2ccccc2c(=O)n1-c1cc(F)c(F)c(F)c1)Nc1ccc2c(c1)CCC2 = satisfied
• O=C(CSc1nc2ccccc2c(=O)n1-c1ccccc1)Nc1ccc2ncsc2c1 = not satisfied
• O=C(CCSc1nc2ccccc2c(=O)n1-c1ccc(F)c(Cl)c1)Nc1ccc2c(c1)CCC2 = satisfied

Ask: Say whether its viability is strictly beneath 80%. Entry: O=C(CCCSc1nc2ccccc2c(=O)n1-c1ccccc1)Nc1ccc2c(c1)CCC2
Reply: not satisfied

Ask: Say whether its viability is strictly beneath 80%. Entry: O=C(CSc1nc2cccc(F)c2c(=O)n1-c1ccccc1)Nc1ccc2c(c1)OCO2
Reply: satisfied

Ask: Say whether its viability is strictly beneath 80%. Entry: O=C(CSc1nc2ccccc2c(=O)n1-c1ccc(F)c(Cl)c1)Nc1cccc2ccccc12
Reply: satisfied

---

test: Vero E6 cell cytotoxicity, SAR follow-up, cytotoxicity control for West Nile virus antiviral project, synthesized analogs, extended characterization 1 (AID 588374); conditions: Vero E6 viability, CellTiter-Glo luminescence, 72 h; at 100 µM (top of the series)
Inconclusive results are not listed.
Readout: viability (%)
Answers are plain numbers, in %.

Here are 5 molecules together with their reported answers.
• O=C(CCCSc1nc2cccc(F)c2c(=O)n1-c1ccc(F)c(F)c1)Nc1ccc2c(c1)CCC2 = 78
• O=C(CSc1nc2ccccc2c(=O)n1-c1ccc(Cl)c(Cl)c1)N1CCCCCC1 = 74.5
• O=C(CSc1nc2ccccc2c(=O)n1-c1ccc(Cl)c(Cl)c1)Nc1ccc2c(c1)CCC2 = 70.3
• O=C(CSc1nc2ccccc2c(=O)n1-c1cc(Cl)cc(Cl)c1)Nc1cccc2ccccc12 = 83.8
• O=C(CSc1nc2ccccc2c(=O)n1-c1ccccc1)NC1Cc2ccccc2C1 = 75.3

Give me viability for each of these molecules, listed below.
1. O=C(CCCSc1nc2ccccc2c(=O)n1-c1ccc(Cl)c(Cl)c1)Nc1ccc2c(c1)CCC2
2. Cc1nc2cc(NC(=O)CSc3nc4ccccc4c(=O)n3-c3ccccc3)ccc2s1
3. O=C(CSc1nc2ccccc2c(=O)n1-c1ccc(Cl)c(Cl)c1)Nc1ccc2c(c1)OCO2
4. O=C(CSc1nc2ccccc2c(=O)n1-c1ccccc1)Nc1nccs1
5. O=C(CSc1nc2ccccc2c(=O)n1-c1ccc(Cl)c(Cl)c1)Nc1ccc2scnc2c1
6. O=C(CSc1nc2ccccc2c(=O)n1-c1ccc(F)c(F)c1)NC1CCCc2ccccc21 (centres undefined)
7. O=C(CSc1nc2ccccc2c(=O)n1-c1ccccc1)NC1CCc2ccccc21 (centres undefined)
8. O=C(CCCCSc1nc2cccc(F)c2c(=O)n1-c1ccc(Cl)c(F)c1)Nc1ccc2c(c1)CCC2

Reply:
1. 80.6
2. 75.1
3. 74.2
4. 96.3
5. 75.5
6. 76.2
7. 75.5
8. 81.9

Ask: Give its viability value. Item: O=C(CCCSc1nc2cccc(F)c2c(=O)n1-c1ccc(F)c(Br)c1)Nc1ccc2c(c1)CCC2
Reply: 81.7
